The reported numbers originate from PubChem BioAssay (NCI).

Assay: NCI Yeast Anticancer Drug Screen. Data for the rad52 strain (AID 147);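 note: 0% = growth of vehicle-treated control cultures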
Settings: S. cerevisiae rad52 mutant growth inhibition; at 1.2 µM; hits give high values
Protocol: Growth inhibition of yeast strains with defined genetic alterations is measured as a screen for potential anti-cancer activity. Selected strains with alterations in DNA damage repair or cell cycle control were exposed to compounds and growth inhibition was measured relative to vehicle treated controls. The strain used in this assay is rad52
This is part of a sample that, as a whole, favours compounds with a hit. Of some 79,000 tested, about 15% had one in any assay.
// label = YES if growth inhibition is not less than 10%, otherwise NO

Below, 5 compounds whose answers are already recorded.
compound	answer-label
CCOP(=O)(OCC)/C(C#N)=C\c1cccc2ccccc12	NO
N#[N+]c1c([O-])c2ccccc2c2ccccc12	YES
N#CSCC1COc2ccccc2O1 (configuration not stated)	NO
Cc1cccc2c(NCCCN(C)C)c3c([N+](=O)[O-])ccc(C)c3nc12	YES
CCCNC(=O)OCc1c(COC(=O)NCCC)c(-c2ccc(Cl)c(Cl)c2)n2c1CCC2	NO

Would you kindly look at the next entry?
Prompt: # check: growth inhibition of O=S(=O)(c1ccccc1)N1CN2CN(C1)CN(S(=O)(=O)c1ccccc1)C2 is greater than or equal to 10%
Response: NO

----------
Test: NCI Yeast Anticancer Drug Screen. Data for the rad14 strain (AID 159);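 note: 0% = growth of vehicle-treated control cultures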
Details: S. cerevisiae rad14 strain growth inhibition; at 100.0 µM; hits give high values
Compounds without any hit were thinned out: in the full panel of roughly 79,000, 15% have a hit.
Assign growth inhibition to each entry below.
One number for each entry, in %.

Solved entries:
compound	readout-value
O=C(CCSC1=NCCCN1)c1ccc(F)cc1	99
CN(N=O)C(=O)Nc1ccc(C(=O)O)cc1	8
CCCCOc1ccc2nc(C)cc(N=[N+]=[N-])c2c1	98
C=CCNC1=C2C[C@@H](C)C[C@H](OC)[C@H](O)[C@@H](C)/C=C(\C)[C@H](OC(N)=O)[C@@H](OC)/C=C\C=C(/C)C(=O)NC(=CC1=O)C2=O	94
C=C(C(=O)OC)N1C(=O)CC(C)C1=O (stereo not given)	68

Provide each entry's growth inhibition from the list below.
1. CCCCCCCCNCCCCCCCC
2. CC(C)Cc1ncc(CCCN=C(N)N)[nH]c1=O
3. COc1ccc(C(OCC2OC(n3cnc4c(=O)n(Cc5ccccc5[N+](=O)[O-])nnc43)C(O)C2O)(c2ccccc2)c2ccc(OC)cc2)cc1 (stereo not given)
4. C[n+]1c(-c2ccc(/C=N/NC(=O)c3ccc(C(=O)N/N=C/c4ccc(-c5cn6ccccc6[n+]5C)cc4)cc3)cc2)cn2ccccc21
5. O=C(Nn1c(-c2ccccc2)nc2ccccc2c1=O)c1ccc(CS)cc1

Response:
1. 98
2. -2
3. -31
4. 60
5. 97

----------
Assign growth inhibition to each entry below.
Experiment: NCI Yeast Anticancer Drug Screen. Data for the rad50 strain (AID 155);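 note: 0% = growth of vehicle-only cultures of the same strain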
Details: S. cerevisiae rad50 strain growth inhibition; at 5.0 µM (retest, dose inferred, filed as 0.5); hits give high values
The panel holds about 79,000 compounds, 15% with a hit somewhere; the sample as a whole holds those more often. Residues, ends and D or L forms follow the SMILES beside them. *: point of attachment. Fmoc = O=C(OCC1c2ccccc2-c2ccccc21)*; Boc = CC(C)(C)OC(=O)*
Give bare numbers, in %.

Solved entries:
compound	property-name	unit-label	readout-value
COc1cc2c(cc1O)[C@H](C)C(c1ccccc1OC)O2 (some centres not stated)	growth inhibition	%	-13
C=CC(C)(C)N1C(=O)C(C(C)=O)=C(O)C1Cc1c[nH]c2ccccc12 (configuration not stated)	growth inhibition	%	0
COc1ccc2c(c1)CCCC(Br)C2=O (configuration not stated)	growth inhibition	%	11
CN(C)CCNC(=Cc1ccc2ccccc2[n+]1C)NCCN(C)C	growth inhibition	%	-1

Provide each entry's growth inhibition from the list below.
1. O=[N+]([O-])c1ccc2[nH]c3c(-c4ccccc4)nccc3c2c1
2. N#CC1OB(O)c2ccccc21 (configuration not stated)
3. NCCCSc1ccccc1
4. NC(N)=NS(=O)(=O)c1ccc(Nc2c3ccccc3nc3c(C(=O)NC(CO)(CO)CO)cccc23)cc1
5. CC(C)(C)OC(=O)NCCCCC(NC(=O)C(Cc1c[nH]c2ccccc12)NC(=O)OCC1c2ccccc2-c2ccccc21)C(=O)O (configuration not stated) (Fmoc-Trp-Lys(Boc)-OH; configuration not given here)
6. O=C(CN(c1ccccc1)c1ccccc1)n1nnc2ccccc21

Response:
[10, -126, 2, 6, -19, -1]

Provide each entry's growth inhibition from the list below.
1. CNC(=O)OCc1c2ccncc2c(C)c2c1[nH]c1ccccc12
2. CCC(OC(C)=O)C1CC(C(C)C)CCC1C (configuration not stated)
3. COC(=O)C(=O)c1c(-c2ccc(Cl)c(Cl)c2)[nH]c2[nH]n(-c3ccccc3)c(=O)c2c1=O

Response:
[61, 3, -5]

Provide each entry's growth inhibition from the list below.
1. O=C(CCSC1=NCCCN1)c1ccc(F)cc1
2. O=C(Cc1ccccc1)NNc1nc(NNC(=O)c2ccncc2)nc(Nc2ccc([N+](=O)[O-])cc2)n1
3. CO[C@@]1([C@@H](Cl)c2ccccc2)C(=O)N(C)/C(=C\c2ccccc2)C(=O)N1C
4. NC(=S)N/N=C1\c2ccccc2CCC1CCC1(O)CCc2ccccc2C1=O (configuration not stated)
5. O=C1C(=C2CCCC2)CCC1CN1CCCCC1 (configuration not stated)
6. O=S(=O)(NC1CCCC(c2ccccc2)C1)c1ccccc1 (configuration not stated)
7. Clc1nc(Cl)nc(Nc2cccc3ccccc23)n1

Response:
[24, 8, -12, 2, -3, -9, 29]

Provide each entry's growth inhibition from the list below.
1. CNC(=S)N/N=C(/C)CCC/C(C)=N/NC(=S)NC
2. CC(C)(CN1CCCCC1)C(=O)/C=C/c1c(Cl)cccc1Cl

Response:
1. 40
2. 2

----------
Assay: NCI Yeast Anticancer Drug Screen. Data for the mec2-1 strain (AID 157)
Details: S. cerevisiae mec2-1 strain, at 1.2 µM, hits give high values
Compounds without any hit were thinned out: in the full panel of roughly 79,000, 15% have a hit.
Assign growth inhibition to each entry below.
Answers are plain numbers, in %.

Solved entries:
compound	growth inhibition / %
CC1(C2CC2)C(C#N)(C#N)C1(C#N)C#N	4
CCCCCc1c(CCCC)c(=O)[nH]c2cc(CNCC(OC)OC)ccc12	-9
c1ccc2c(c1)ccn2CCc1c[nH]c2ccccc12	-24
CC(=O)O/N=C1C=C/C(=C(/C#N)c2ccccc2)C=C/1C	-1
CCCCCCCCCCCCCCCCCCN(C)C(COC)COP(=O)([O-])OCC[N+](C)(C)C (stereo unspecified)	-48
c1c[nH]c(CN2CCN(Cc3ncc[nH]3)CC2)n1	-5
N#C/C(=C\NC(=S)Nc1ccc(S(N)(=O)=O)cc1)C(=O)c1ccc2ccccc2c1	0
CN(C)CCNC(=Cc1ccc2ccccc2[n+]1C)NCCN(C)C	-5

Provide each entry's growth inhibition from the list below.
1. O=C1c2ccccc2-c2ccc(N=Cc3ccccc3)cc21
2. COC(=N)c1ccc(O)c(C)c1
3. NC(=S)N/N=C1\c2ccccc2CCC1CCC1(O)CCc2ccccc2C1=O (stereo unspecified)

Response:
-4
0
5

----------
Experiment: NCI Yeast Anticancer Drug Screen. Data for the mec2-1 strain (AID 157)
Conditions: S. cerevisiae mec2-1 strain, at 50.0 µM (retest, dose inferred, filed as 5.0), hits give high values
The panel holds about 79,000 compounds, 15% with a hit somewhere; the sample as a whole holds those more often.
// label = label 1 if growth inhibition is not less than 50%, otherwise label 0

Below, 5 molecules whose answers are already recorded.
molecule	answer-label
CC(C)OP(=O)(OC(C)C)C(=NCCO)NNc1ccc([N+](=O)[O-])cc1	label 0
CC(C)=CCc1c2c(c(O)c3c(=O)c(-c4ccc(O)c(O)c4)coc13)C=CC(C)(C)O2	label 1
COc1cc([C@@H]2c3cc4c(cc3[C@@H](NC(=O)NO)[C@H]3COC(=O)[C@H]23)OCO4)cc(OC)c1O	label 0
Cc1ccc(Nc2n[nH]c(=S)s2)c(C)c1	label 0
O=C(Cc1ccccc1)NN1C(=O)C(Cl)C1c1cc(Br)cc(Br)c1O (centres undefined)	label 1

Prompt: # check: growth inhibition of CNC(=O)OCc1c2ccncc2c(C)c2c1[nH]c1ccccc12 is greater than or equal to 50%
Response: label 1

Prompt: # check: growth inhibition of NC(=S)N1N=C2c3ccccc3CC[C@@H]2[C@@H]1c1ccccc1 is greater than or equal to 50%
Response: label 1

Prompt: # check: growth inhibition of O=C(Cc1ccccc1)NNc1nc(NNC(=O)c2ccncc2)nc(Nc2ccc([N+](=O)[O-])cc2)n1 is greater than or equal to 50%
Response: label 0

Prompt: # check: growth inhibition of OC(c1ccccc1)(c1ccccc1)c1nccc2ccccc12 is greater than or equal to 50%
Response: label 0

Prompt: # check: growth inhibition of Cc1c2cc[n+](CCO)cc2c(C)c2c1[nH]c1ccc(O)cc12 is greater than or equal to 50%
Response: label 0

Prompt: # check: growth inhibition of O=C(O)C(=Cc1ccc(-c2ccccc2)cc1)C(=O)O is greater than or equal to 50%
Response: label 1

Prompt: # check: growth inhibition of Cc1ccc(NC(Nc2ccc(C)cc2C)=C(C(Cl)=C(Cl)Cl)[N+](=O)[O-])c(C)c1 is greater than or equal to 50%
Response: label 1

Prompt: # check: growth inhibition of O=[N+]([O-])c1ccc(C(c2c[nH]c3ccccc23)c2c[nH]c3ccccc23)cc1 is greater than or equal to 50%
Response: label 1

Prompt: # check: growth inhibition of O=C1Nc2ccc(Br)cc2C1=Nc1cccnc1 is greater than or equal to 50%
Response: label 1
